Attribute: composite z-score
Test: small-molecule binders of probe aLefty1, primary screen, biochemical, small-molecule microarray, 635/667 nm fluorescence (AID 1153);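 further: score merges spot fluorescence with signal-to-noise ratio from the scanned slide images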
Conditions: higher = more signal
The answer should be a number; do not append a unit.

Check out these entries, answers already filled in.
compound	composite z-score
O=C1C2C=CC(C(O)c3ccccc3)N(n3cnnc3)C2C(=O)N1Cc1ccccc1 (stereo not given)	0.3
C#CCNC(/C=C/c1ccccc1)CO (stereo not given)	-0.252
CN(C)CCCC[C@@H]1NC(=O)[C@@H]2C[C@H](C(=O)NCCCCCNC(=O)CS)[C@H](c3ccc(O)cc3)N2C1=O	-0.227
COC(=O)C1=CC(c2ccc(CO)cc2)=CC(C2CC2)N(Cc2sc3ccccc3c2Cl)C=C1C(=O)OC (stereo not given)	0.385

// next item, composite z-score requested
Name the reported composite z-score value associated with the compound C=CCNC(=O)[C@H]1[C@@H]2C(=O)O[C@@H](c3ccccc3)[C@@H](c3ccccc3)N2[C@@H](c2ccc(O)cc2)[C@]12C(=O)Nc1ccc(C#CCNC(N)=O)cc12 0.599
